These data points were gathered from patent US10799605B2.

Target: KV channel
Test: ExpresSProfile: KV channel, antagonist radioligand
Type: binding
Details: Reference Compound; read-out: Ki Ref
assayReadout: pKi
Just so you know, pKi here is -log10 of the concentration in molar units; reply with that number alone.

Ask: Let me know recorded pKi for alpha-dendrotoxin (QPRRKLCILHRNPGRCYDKIPAFYYNQKKKQCERFDWSGCGGNSNRFKTIEECRRTCIG) , thanks.
Result: 9.70
